- Target system: T1, soluble human CD3 epsilon chain (human, UniProt P07766 23-126)
- T1 construct: also called CD3ε
- T1 sequence (P07766 23-126 limits assumed): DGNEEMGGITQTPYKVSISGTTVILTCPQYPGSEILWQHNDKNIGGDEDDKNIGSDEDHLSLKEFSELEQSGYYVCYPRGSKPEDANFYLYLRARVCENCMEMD
- Assay remarks: SPR
Here, each record is paired with measured pKd data.
API: returns pKd as number; meaning -log10 of concentration in mol/L.

Consider the worked cases shown below.
Binder	Property name	Measured result
TR01H020-E22Hh/none-Hi-Kn010G3/L0000-k0 (antibody, V domains shown, one-arm) VH: QVQLVESGGGLVQPGRSLRLSCAASGFTFSNAWMHWVRQAPGKGLEWVAQIKGKSNNYATYYAPSVKGRFTISRADSKNSIYLQMNSLKTEDTAVYYCRYVHYSASYGVDIWGQGTTVTVSS VL: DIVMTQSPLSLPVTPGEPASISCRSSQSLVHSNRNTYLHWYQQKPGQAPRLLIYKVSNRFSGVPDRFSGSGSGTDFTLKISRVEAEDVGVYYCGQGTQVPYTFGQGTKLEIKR	pKd	7.19
TR01H075-E22Hh/none-Hi-Kn010G3/L0000-k0 (antibody, V domains shown, one-arm) VH: QVQLVESGGGLVQPGRSLRLSCAASGFTFSNAWMHWVRQAPGKGLEWVAQIKDKSQNYATYYAESVKGRFTISRDDSKNSLYLQMNSLKTEDTAVYYCRYVHYAASYGVDYWGQGTTVTVSS VL: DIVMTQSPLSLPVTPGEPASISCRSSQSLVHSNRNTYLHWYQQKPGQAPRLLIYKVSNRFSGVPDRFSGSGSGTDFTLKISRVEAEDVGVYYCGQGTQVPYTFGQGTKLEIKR	pKd	7.01

// recorded pKd for TR01H040-E22Hh/none-Hi-Kn010G3/TR01L015-k0 (antibody, V domains shown, one-arm) VH: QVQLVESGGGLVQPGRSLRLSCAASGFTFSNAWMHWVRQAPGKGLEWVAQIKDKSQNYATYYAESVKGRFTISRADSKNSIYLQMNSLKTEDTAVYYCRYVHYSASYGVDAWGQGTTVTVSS VL: DIVMTQSPLSLPVTPGEPASISCRSSQSPVHSNRNTYLHWYLQKPGQSPQLLIYKVSNRFSGVPDRFSGSGSGTDFTLKISRVEAEDVGVYYCGQGTQVPYTFGQGTKLEIK : 7.40

These data points were gathered from patent US20250066503A1.
